# system_under_test: Glycogen synthase kinase-3 beta (Homo sapiens, UniProt P49841)
# assay_remarks: Inhibition of recombinant full length human His-tagged GSK3beta expressed in baculovirus expression system at 11 uM using ser/thr-9 peptide as substrate measured after 1 hr by Z'-Lyte assay relative to control
# Sequence (P49841 whole entry, looked up): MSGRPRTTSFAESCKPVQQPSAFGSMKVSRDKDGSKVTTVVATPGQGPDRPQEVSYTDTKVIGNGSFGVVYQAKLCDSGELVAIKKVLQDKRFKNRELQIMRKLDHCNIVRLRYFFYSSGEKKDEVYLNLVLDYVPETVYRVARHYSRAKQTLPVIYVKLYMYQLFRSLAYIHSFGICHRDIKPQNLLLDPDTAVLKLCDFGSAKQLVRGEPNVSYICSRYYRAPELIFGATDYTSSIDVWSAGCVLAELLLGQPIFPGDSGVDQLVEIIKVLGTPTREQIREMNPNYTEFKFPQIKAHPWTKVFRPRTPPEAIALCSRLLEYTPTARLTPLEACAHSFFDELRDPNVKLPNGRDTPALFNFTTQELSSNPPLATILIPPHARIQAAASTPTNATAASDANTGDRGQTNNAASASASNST
measurement_kind: inhibition

Q: Reported inhibition, compound CCCN(C(=O)Nc1ccc(OC)cc1)C1CCc2nc(NC(=O)Nc3ccc(OC)cc3)sc2C1 (stereo not drawn) : ____
A: < 30%

Q: Request: CCCN(C(=O)Nc1ccc(C(=O)OCC)cc1)C1CCc2nc(NC(=O)Nc3ccc(C(=O)OCC)cc3)sc2C1 (stereo not drawn)
A: < 30%

Q: Param item: O=C(Nc1nc2c(s1)CC(NC(=O)Nc1ccccc1F)CC2)Nc1ccccc1F (stereo not drawn)
A: < 30%

Q: Try the compound O=C(Nc1ccc(C(=O)O)cc1)Nc1nc2c(s1)CC(NC(=O)Nc1ccc(C(=O)O)cc1)CC2 (stereo not drawn)
A: < 30%

Q: Query CCOC(=O)c1ccc(NC(=O)Nc2nc3c(s2)CC(N2C(=O)c4ccccc4C2=O)CC3)cc1 (stereo not drawn) next
A: < 30%

Q: Same question, O=C(Nc1ccc(F)cc1)Nc1nc2c(s1)CC(NC(=O)Nc1ccc(F)cc1)CC2 (stereo not drawn) this time
A: < 30%

Q: Again, but for CCCN(C(=O)Nc1cccc(C(=O)OCC)c1)C1CCc2nc(NCc3ccc(C(=O)OC)cc3)sc2C1 (stereo not drawn)
A: > 30%

Q: Subsequent entry: CCCN(C(=O)Nc1ccccc1F)C1CCc2nc(NCc3ccc(C(=O)O)cc3)sc2C1 (stereo not drawn)
A: < 30%

Q: Now give it for CCOC(=O)c1ccc(NC(=O)Nc2nc3c(s2)CC(NC(=O)Nc2ccc(C(=O)OCC)cc2)CC3)cc1 (stereo not drawn) too.
A: < 30%

Q: How about this compound: CCCN(C(=O)Nc1cccc(F)c1)C1CCc2nc(NC(=O)Nc3cccc(F)c3)sc2C1 (stereo not drawn)
A: < 30%

Q: Also O=C(Nc1ccc(F)cc1)Nc1nc2c(s1)CC(N1C(=O)c3ccccc3C1=O)CC2 (stereo not drawn) , if possible.
A: < 30%

Q: Check CCCN(C(=O)Nc1ccc(F)cc1)C1CCc2nc(NCc3ccc(C(=O)OC)cc3)sc2C1 (stereo not drawn) too.
A: < 30%

Q: And for O=C(Nc1cccc(F)c1)Nc1nc2c(s1)CC(N1C(=O)c3ccccc3C1=O)CC2 (stereo not drawn) ?
A: < 30%

Q: Do the same for O=C(Nc1ccc(C(=O)O)cc1)Nc1nc2c(s1)CC(N1C(=O)c3ccccc3C1=O)CC2 (stereo not drawn) please
A: > 30%

Q: Param item: CCCN(C(=O)Nc1ccc(OC)cc1)C1CCc2nc(NCc3ccc(C(=O)OC)cc3)sc2C1 (stereo not drawn)
A: < 30%

Q: Lookup CCCN(C(=O)Nc1ccc(C(=O)OCC)cc1)C1CCc2nc(NCc3ccc(C(=O)OC)cc3)sc2C1 (stereo not drawn)
A: < 30%

Q: Also need O=C(Nc1cccc(C(=O)O)c1)Nc1nc2c(s1)CC(NC(=O)Nc1cccc(C(=O)O)c1)CC2 (stereo not drawn) , thanks.
A: > 30%

Q: Same again, this time with CCCN(C(=O)Nc1ccc(C(=O)O)cc1)C1CCc2nc(NCc3ccc(C(=O)O)cc3)sc2C1 (stereo not drawn)
A: < 30%

* * *

# system_under_test: Glycogen synthase kinase-3 beta (Homo sapiens)
# assay_remarks: Inhibition of recombinant full length human His-tagged GSK3beta expressed in baculovirus expression system using ser/thr-9 peptide as substrate measured after 1 hr by Z'-Lyte assay
# Sequence (P49841 whole entry): as the sequence (P49841 whole entry, looked up) above
measurement_kind: pIC50
The value called pIC50 is obtained by taking minus log10 of the concentration in mol/L.

Q: So what does the record say about pIC50 for O=C(Nc1ccc(C(=O)O)cc1)Nc1nc2c(s1)CC(N1C(=O)c3ccccc3C1=O)CC2 (stereo not drawn) ?
A: 5.34

Q: Note, next up: CCOC(=O)c1cccc(NC(=O)Nc2nc3c(s2)CC(NC(=O)Nc2cccc(C(=O)OCC)c2)CC3)c1 (stereo not drawn)
A: 5.60

Q: Now the same for CCCN(C(=O)Nc1cccc(C(=O)O)c1)C1CCc2nc(NCc3ccc(C(=O)O)cc3)sc2C1 (stereo not drawn)
A: 4.94

Q: // repeat for CCCN(C(=O)Nc1cccc(C(=O)OCC)c1)C1CCc2nc(NCc3ccc(C(=O)OC)cc3)sc2C1 (stereo not drawn) and report
A: 4.87

Q: What do you get for O=C(Nc1cccc(C(=O)O)c1)Nc1nc2c(s1)CC(N1C(=O)c3ccccc3C1=O)CC2 (stereo not drawn) ?
A: 6.17

Q: Can you handle O=C(Nc1cccc(C(=O)O)c1)Nc1nc2c(s1)CC(NC(=O)Nc1cccc(C(=O)O)c1)CC2 (stereo not drawn) next?
A: 5.22

Q: Then CCCN(C(=O)Nc1cccc(C(=O)O)c1)C1CCc2nc(NC(=O)Nc3cccc(C(=O)O)c3)sc2C1 (stereo not drawn) ?
A: 5.82

Q: Do the same for CCOC(=O)c1cccc(NC(=O)Nc2nc3c(s2)CC(N2C(=O)c4ccccc4C2=O)CC3)c1 (stereo not drawn) please
A: 5.28

* * *

# system_under_test: Casein kinase II subunit alpha (Homo sapiens)
# Sequence (P68400 whole entry): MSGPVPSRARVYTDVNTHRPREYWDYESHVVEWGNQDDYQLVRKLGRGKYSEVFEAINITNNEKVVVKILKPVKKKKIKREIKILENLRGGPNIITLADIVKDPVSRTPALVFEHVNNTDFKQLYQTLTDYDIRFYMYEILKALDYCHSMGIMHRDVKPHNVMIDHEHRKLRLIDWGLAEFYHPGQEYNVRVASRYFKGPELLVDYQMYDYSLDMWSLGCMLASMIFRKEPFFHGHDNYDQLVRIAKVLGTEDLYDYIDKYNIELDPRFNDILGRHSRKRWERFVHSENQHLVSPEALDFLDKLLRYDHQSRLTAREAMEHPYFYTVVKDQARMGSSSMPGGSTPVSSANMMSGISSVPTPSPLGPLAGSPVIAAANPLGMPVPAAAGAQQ
# assay_remarks: Inhibition of recombinant full length human His-tagged CK2alpha1 expressed in baculovirus expression system using ser/thr-11 peptide as substrate measured after 1 hr by Z'-Lyte assay
Exercise: for every item that follows, state its recorded IC50.
The figure you give is taken to be in µM; do not add the unit.

Q: IC50 lookup needed for O=C(Nc1cccc(C(=O)O)c1)Nc1nc2c(s1)CC(NC(=O)Nc1cccc(C(=O)O)c1)CC2 (centres undefined) , thanks.
A: 12.4

Q: How about this molecule: CCCN(C(=O)Nc1cccc(C(=O)O)c1)C1CCc2nc(NCc3ccc(C(=O)O)cc3)sc2C1 (centres undefined)
A: 4

Q: # repeat for CCCN(C(=O)Nc1cccc(C(=O)OCC)c1)C1CCc2nc(NCc3ccc(C(=O)OC)cc3)sc2C1 (centres undefined)
A: 4.6

Q: Could you do the same for CCOC(=O)c1cccc(NC(=O)Nc2nc3c(s2)CC(NC(=O)Nc2cccc(C(=O)OCC)c2)CC3)c1 (centres undefined) , please?
A: 20.4

* * *

# system_under_test: Casein kinase II subunit alpha (Homo sapiens)
# assay_remarks: Inhibition of recombinant full length human His-tagged CK2alpha1 expressed in baculovirus expression system using ser/thr-11 peptide as substrate measured after 1 hr by Z'-Lyte assay
Give pIC50 for every item shown.
Scale note: pIC50 = -log10(concentration in M).

Q: Lab request: please report pIC50 under test system Casein kinase II subunit alpha (Homo sapiens) for O=C(Nc1ccc(C(=O)O)cc1)Nc1nc2c(s1)CC(N1C(=O)c3ccccc3C1=O)CC2 (centres undefined)
A: 5.31

Q: Would you mind doing O=C(Nc1cccc(C(=O)O)c1)Nc1nc2c(s1)CC(N1C(=O)c3ccccc3C1=O)CC2 (centres undefined) as well?
A: 5.72

Q: Subsequent entry: CCCN(C(=O)Nc1cccc(C(=O)O)c1)C1CCc2nc(NC(=O)Nc3cccc(C(=O)O)c3)sc2C1 (centres undefined)
A: 5.55

Q: Param item: CCOC(=O)c1cccc(NC(=O)Nc2nc3c(s2)CC(N2C(=O)c4ccccc4C2=O)CC3)c1 (centres undefined)
A: 5.10

* * *

For each of the compounds below, state its inhibition.
# system_under_test: UniProt:P49841
# assay_remarks: Inhibition of recombinant full length human His-tagged GSK3beta expressed in baculovirus expression system at 11 uM using ser/thr-9 peptide as substrate measured after 1 hr by Z'-Lyte assay relative to control

Q: Requested read-out: inhibition. Entry: CCCN(C(=O)Nc1cccc(C(=O)O)c1)C1CCc2nc(NC(=O)Nc3cccc(C(=O)O)c3)sc2C1 (stereo not given)
A: > 30%

Q: Do the same for CCCN(C(=O)Nc1cccc(C(=O)OCC)c1)C1CCc2nc(NC(=O)Nc3cccc(C(=O)OCC)c3)sc2C1 (stereo not given) please
A: < 30%

Q: What about this compound? CCCN(C(=O)Nc1cccc(C(=O)O)c1)C1CCc2nc(NCc3ccc(C(=O)O)cc3)sc2C1 (stereo not given)
A: > 30%

Q: Now consider CCCN(C(=O)Nc1ccccc1F)C1CCc2nc(NCc3ccc(C(=O)OC)cc3)sc2C1 (stereo not given) and answer again.
A: < 30%

Q: Same lookup for CCCN(C(=O)Nc1cccc(F)c1)C1CCc2nc(NCc3ccc(C(=O)O)cc3)sc2C1 (stereo not given) , please.
A: < 30%

* * *

# system_under_test: Glycogen synthase kinase-3 beta (Homo sapiens)
# assay_remarks: Inhibition of recombinant full length human His-tagged GSK3beta expressed in baculovirus expression system at 11 uM using ser/thr-9 peptide as substrate measured after 1 hr by Z'-Lyte assay relative to control
measurement_kind: inhibition

Q: Name the recorded inhibition for O=C(Nc1cccc(C(=O)O)c1)Nc1nc2c(s1)CC(N1C(=O)c3ccccc3C1=O)CC2 (centres undefined) .
A: > 30%

Q: Record: CCCN(C(=O)Nc1cccc(F)c1)C1CCc2nc(NCc3ccc(C(=O)OC)cc3)sc2C1 (centres undefined)
A: < 30%

Q: Try this compound too: CCCN(C(=O)Nc1ccc(OC)cc1)C1CCc2nc(NCc3ccc(C(=O)O)cc3)sc2C1 (centres undefined)
A: < 30%

Q: Next: CCOC(=O)c1cccc(NC(=O)Nc2nc3c(s2)CC(NC(=O)Nc2cccc(C(=O)OCC)c2)CC3)c1 (centres undefined)
A: > 30%

Q: And COc1ccc(NC(=O)Nc2nc3c(s2)CC(NC(=O)Nc2ccc(OC)cc2)CC3)cc1 (centres undefined) ?
A: < 30%

Q: Try this compound next: O=C(Nc1nc2c(s1)CC(N1C(=O)c3ccccc3C1=O)CC2)Nc1ccccc1F (centres undefined)
A: < 30%

Q: Let us now turn to CCCN(C(=O)Nc1ccc(C(=O)O)cc1)C1CCc2nc(NC(=O)Nc3ccc(C(=O)O)cc3)sc2C1 (centres undefined)
A: < 30%

Q: Continue with CCOC(=O)c1cccc(NC(=O)Nc2nc3c(s2)CC(N2C(=O)c4ccccc4C2=O)CC3)c1 (centres undefined)
A: > 30%

Q: Please give the result for COc1ccc(NC(=O)Nc2nc3c(s2)CC(N2C(=O)c4ccccc4C2=O)CC3)cc1 (centres undefined) too.
A: < 30%

Data provenance is ChEMBL document CHEMBL4257557.
